Target: Btk enzyme (His-Btk) (Homo sapiens (Human))
Sequence (Q06187 whole entry): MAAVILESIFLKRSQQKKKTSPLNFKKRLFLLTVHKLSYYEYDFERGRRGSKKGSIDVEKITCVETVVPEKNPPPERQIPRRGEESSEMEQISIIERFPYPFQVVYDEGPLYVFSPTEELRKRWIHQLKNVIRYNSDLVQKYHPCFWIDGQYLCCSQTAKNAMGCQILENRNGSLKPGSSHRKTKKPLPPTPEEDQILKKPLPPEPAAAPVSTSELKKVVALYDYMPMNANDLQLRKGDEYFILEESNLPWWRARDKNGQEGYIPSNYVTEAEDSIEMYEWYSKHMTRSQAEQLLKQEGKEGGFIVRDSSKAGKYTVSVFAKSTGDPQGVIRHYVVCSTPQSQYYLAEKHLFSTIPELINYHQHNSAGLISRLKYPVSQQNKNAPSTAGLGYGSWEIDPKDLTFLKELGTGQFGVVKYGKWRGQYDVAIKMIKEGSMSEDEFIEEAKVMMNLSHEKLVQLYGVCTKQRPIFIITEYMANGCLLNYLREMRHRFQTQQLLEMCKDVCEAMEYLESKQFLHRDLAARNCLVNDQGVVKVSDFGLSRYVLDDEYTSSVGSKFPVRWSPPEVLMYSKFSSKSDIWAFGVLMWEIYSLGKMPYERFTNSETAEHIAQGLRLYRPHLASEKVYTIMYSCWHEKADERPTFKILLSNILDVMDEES
Test: Btk enzyme activity, IMAP fluorescence polarization assay (Assay Method A)
Observation Type: EC50

Return EC50 for the following molecule: Nc1nccn2c([C@@H]3CCCN(C(=O)CC4CC4)C3)nc(-c3ccc(C(=O)Nc4ccccn4)cc3)c12
< 10 nM

Return EC50 for the following molecule: CCc1cnc(NC(=O)c2ccc(-c3nc([C@H]4CC[C@H](OC(C)=O)CC4)n4ccnc(N)c34)cc2)s1
10 to 100 nM

###

Molecular target: UniProt Q06187
Test: BTK enzymatic activity, LANCE TR-FRET assay (Assay Method C)
Format: biochemical
Details: Table D; Assay Method C (LANCE TR-FRET), 50 pM hBTK, 25 μM ATP; read-out: IC50 BTK activity value
Observation Type: IC50 (nM)

I: C[C@H]1CC[C@@H](c2nc(-c3ccc(C(=O)Nc4cc(C(F)F)ccn4)cc3F)c3c(N)nccn23)CN1C(=O)C1CC1
II: C[C@H]1CC[C@@H](c2nc(-c3ccc(C(=O)Nc4cc(C(F)(F)F)ccn4)cc3)c3c(N)nccn23)CN1C(=O)C1(C)COC1
Consider entries I and II . Which has the numerically lower IC50? Could you answer with the label of the item you picked?
II
(II: 0.167 nM, I: 0.479 nM)

I: Cc1cnc(N)c2c(-c3ccc(C(=O)Nc4cc(OC5CC5)ccn4)cc3)nc([C@@H]3CCCN(C(=O)C4(C)COC4)C3)n12
II: C[C@H]1CC[C@@H](c2nc(-c3ccc(C(=O)Nc4cc(C(C)(F)F)ccn4)cc3)c3c(N)nccn23)CN1C(=O)C1(C)COC1
Recorded IC50 values differ for I and II ; which one is higher? Could you answer with the label of the item you picked?
I

I: C[C@H]1CC[C@@H](c2nc(-c3ccc(C(=O)Nc4cc(C(F)(F)F)ccn4)c(F)c3)c3c(N)nccn23)CN1C(=O)C1(C)COC1
II: C[C@H](O)C(=O)N1CCC[C@@H](c2nc(-c3ccc(C(=O)Nc4cc(C(F)(F)F)ccn4)cc3)c3c(N)nccn23)C1
Consider entries I and II . Which has the numerically lower IC50? Could you answer with the label of the item you picked?
I
(I: 0.322 nM, II: 0.472 nM)

###

Target: UniProtKB Q06187
Assay: BTK enzymatic activity, LANCE TR-FRET assay (Assay Method C)
Format: biochemical
Details: Table D; Assay Method C (LANCE TR-FRET), 50 pM hBTK, 25 μM ATP; read-out: IC50 BTK activity value
Observation Type: IC50 (pM)

Worked cases, IC50 given:
COCC(=O)N1CCO[C@@H](c2nc(-c3ccc(C(=O)Nc4cc(C(F)(F)F)ccn4)cc3)c3c(N)ncc(Cl)n23)C1 [Example 528]; 892
CC1(C(=O)N2CCC[C@@H](c3nc(-c4ccc(C(=O)Nc5ccc(C(F)F)cn5)cc4)c4c(N)nccn34)C2)COC1 [Example 355]; 1330

A: COCc1cnc(N)c2c(-c3ccc(C(=O)Nc4cc(C(F)(F)F)ccn4)cc3)nc([C@@H]3CCCN(C(=O)C4(C)COC4)C3)n12 [Example 449]
B: C[C@@H](O)C(=O)N1CCC[C@@H](c2nc(-c3ccc(C(=O)Nc4cc(C(F)(F)F)ccn4)cc3)c3c(N)nccn23)C1 [Example 346]
C: C[C@H]1CC[C@@H](c2nc(-c3ccc(C(=O)Nc4cc(C(F)(F)F)ccn4)c(Cl)c3)c3c(N)nccn23)CN1C(=O)C1(C)COC1 [Example 400]
Write the entries in order, lowest recorded IC50 first. State the ranking by listing the labels in the requested order.
B, A, C
(B: 219 pM, A: 656 pM, C: 960 pM)

###

Target: hBTK (full-length BTK, 6HIS-tag cleaved) (Homo sapiens (Human))
Experiment: BTK enzymatic activity, LANCE TR-FRET assay (Assay Method C)
Assay type: biochemical
Conditions: LANCE TR-FRET, 50 pM hBTK, 25 μM ATP; class 100-1000 is given as ≧100 nM-<1 μM; read-out: IC50 Btk activity values - Assay Method C
pIC50: −log10 of the molar value.
Measured pIC50, listed per entry.

Worked cases, pIC50 given:
COc1ccnc(NC(=O)c2ccc(-c3nc([C@@H]4CCCN(C(C)=O)C4)n4c(C)cnc(N)c34)cc2)c1; > 8.00
CC1(C(=O)N2CCC[C@@H](c3nc(-c4ccc(C(=O)Nc5ccc(F)cn5)cc4)c4c(N)nccn34)C2)COC1; 7.00 to 8.00
COc1ccnc(NC(=O)c2ccc(-c3nc([C@@H]4CCCN(C(=O)C5(C)COC5)C4)n4ccnc(N)c34)cc2)n1; 6.00 to 7.00
CC1(CN2CCC[C@@H](c3nc(-c4ccc(C(=O)Nc5cc(C(F)(F)F)ccn5)cc4)c4c(N)nccn34)C2)COC1; > 8.00
CCOCCC(=O)N1CCO[C@@H](c2nc(-c3ccc(C(=O)Nc4cc(C(F)(F)F)ccn4)cc3)c3c(N)nccn23)C1; > 8.00
Nc1nccn2c([C@@H]3CCCN(C(=O)CCC(F)(F)F)C3)nc(-c3ccc(C(=O)Nc4cc(C(F)(F)F)ccn4)cc3)c12; > 8.00

Continue with the compound presented below.
Return pIC50 for the following compound: Nc1ncc(Cl)n2c([C@H]3CN(CC(F)(F)F)CCO3)nc(-c3ccc(C(=O)Nc4cc(C(F)(F)F)ccn4)cc3)c12
> 8.00

###

Molecular target: hBTK (full-length BTK, 6HIS-tag cleaved) (Homo sapiens (Human), UniProt Q06187)
Sequence (Q06187 whole entry): as above
Assay: BTK enzymatic activity, LANCE TR-FRET assay (Assay Method C)
Type: biochemical
Conditions: LANCE TR-FRET, 50 pM hBTK, 25 μM ATP; class 100-1000 is given as ≧100 nM-<1 μM; read-out: IC50 Btk activity values - Assay Method C
Counter-ions that a name gives are not always drawn.
Observation Type: IC50

CC1(C(=O)N2CCC[C@@](O)(c3nc(-c4ccc(C(=O)Nc5cc(C(F)(F)F)ccn5)cc4)c4c(N)nccn34)C2)COC1; < 10 nM
CN(C)CC(=O)N1CCC[C@@H](c2nc(-c3ccc(C(=O)Nc4cc(C(F)(F)F)ccn4)cc3)c3c(N)nccn23)C1; < 10 nM
Nc1ncnc2c1c(-c1ccc(C(=O)Nc3cc(C(F)(F)F)ccn3)cc1)nn2[C@@H]1CCCc2c1cnn2CCO [Example 561, TFA salt]; < 10 nM
C[C@@H](O)C(=O)N1CCO[C@@H](c2nc(-c3ccc(C(=O)Nc4cc(C(F)(F)F)ccn4)cc3)c3c(N)ncc(Cl)n23)C1; < 10 nM
CC1(C(=O)N2CCC[C@@H](c3nc(-c4ccc(C(=O)Nc5ccc(C(F)(F)F)cn5)cc4)c4c(N)nccn34)C2)COC1; 10 to 100 nM

Return IC50 for the following molecule: CCOCCN1CCO[C@@H](c2nc(-c3ccc(C(=O)Nc4cc(C(F)(F)F)ccn4)cc3)c3c(N)ncc(C)n23)C1 [Example 541, TFA salt]
< 10 nM

Return IC50 for the following molecule: COCCOCC(=O)N1CCO[C@@H](c2nc(-c3ccc(C(=O)Nc4cc(C(F)(F)F)ccn4)cc3)c3c(N)ncc(Cl)n23)C1
< 10 nM

Return IC50 for the following molecule: COCCC(=O)N1CCO[C@@H](c2nc(-c3ccc(C(=O)Nc4cc(C(F)(F)F)ccn4)cc3)c3c(N)ncc(C)n23)C1
< 10 nM

Return IC50 for the following molecule: Nc1nccn2c([C@@H]3CCCN(C(=O)c4cnsc4)C3)nc(-c3ccc(C(=O)Nc4cc(C(F)(F)F)ccn4)cc3)c12
< 10 nM

Return IC50 for the following molecule: C[C@H]1CC[C@@H](c2nc(-c3ccc(C(=O)Nc4cc(C(F)(F)F)ccn4)c(F)c3)c3c(N)nccn23)CN1C(=O)C1(C)COC1
< 10 nM

Return IC50 for the following molecule: COCC(=O)N1CCC[C@@H](c2nc(-c3ccc(C(=O)Nc4cc(C(F)(F)F)ccn4)cc3F)c3c(N)nccn23)C1 [Example 575, TFA salt]
< 10 nM

Return IC50 for the following molecule: CCc1ccnc(NC(=O)c2ccc(-c3nc([C@@H]4CCCN(C(=O)C5(C)COC5)C4)n4ccnc(N)c34)cc2)c1
< 10 nM

Return IC50 for the following molecule: Nc1ncnc2c1c(-c1ccc(C(=O)Nc3cc(C(F)(F)F)ccn3)cc1)nn2[C@@H]1CCCc2[nH]ncc21 [Example 554, TFA salt]
10 to 100 nM

Return IC50 for the following molecule: Cc1ccc(NC(=O)c2ccc(-c3nc([C@@H]4CCCN(C(=O)C5(C)COC5)C4)n4ccnc(N)c34)cc2)nc1
< 10 nM

Return IC50 for the following molecule: Cc1cc(NC(=O)c2ccc(-c3nc([C@@H]4CCCN(C(=O)C5(C)COC5)C4)n4ccnc(N)c34)cc2)no1
100 to 1000 nM

Return IC50 for the following molecule: CCC(=O)N1C[C@@H](c2nc(-c3ccc(C(=O)Nc4cc(C(F)(F)F)ccn4)cc3)c3c(N)nccn23)CC[C@@H]1C(F)(F)F
< 10 nM

Return IC50 for the following molecule: CCOCC(=O)N1CCO[C@@H](c2nc(-c3ccc(C(=O)Nc4cc(C(F)(F)F)ccn4)cc3)c3c(N)nccn23)C1
< 10 nM

Return IC50 for the following molecule: CC1(CN2CCO[C@@H](c3nc(-c4ccc(C(=O)Nc5cc(C(F)(F)F)ccn5)cc4)c4c(N)nccn34)C2)COC1
< 10 nM

Return IC50 for the following molecule: CC(=O)N1CCC[C@@H](n2nc(-c3ccc(C(=O)Nc4cc(C(F)(F)F)ccn4)cc3)c3c(N)nccc32)C1
< 10 nM

Return IC50 for the following molecule: COCCC(=O)N1C[C@H](c2nc(-c3ccc(C(=O)Nc4cc(C(F)(F)F)ccn4)c(F)c3)c3c(N)nccn23)CC[C@@H]1C
< 10 nM

Return IC50 for the following molecule: CCN1CCO[C@H](c2nc(-c3ccc(C(=O)Nc4cc(C(F)(F)F)ccn4)cc3)c3c(N)nccn23)C1
10 to 100 nM

Return IC50 for the following molecule: Cn1ccc(NC(=O)c2ccc(-c3nc([C@@H]4CCCN(C(=O)C5(C)COC5)C4)n4ccnc(N)c34)cc2)n1
10 to 100 nM

Return IC50 for the following molecule: C[C@H]1CO[C@@H](c2nc(-c3ccc(C(=O)Nc4cc(C(F)(F)F)ccn4)cc3)c3c(N)nccn23)CN1C(=O)C1CC1 [Example 516, TFA salt]
< 10 nM

Return IC50 for the following molecule: Nc1nccn2c([C@H]3CC[C@H](C(F)(F)F)N(CCO)C3)nc(-c3ccc(C(=O)Nc4cc(C(F)(F)F)ccn4)cc3)c12
< 10 nM

Return IC50 for the following molecule: CCN1C[C@@H](c2nc(-c3ccc(C(=O)Nc4ccccn4)cc3)c3c(N)nccn23)CC[C@@H]1C(F)(F)F
< 10 nM

Return IC50 for the following molecule: CC1(C(=O)N2CCC[C@@H](c3nc(-c4ccc(C(=O)Nc5ncns5)cc4)c4c(N)nccn34)C2)COC1
10 to 100 nM

Sourced from patent US9718828B2
